assayOverview: xn = mol fraction of the nth substance listed
testConditions: 298.15 K; 100.5 kPa; Liquid; x1 = 0.3
assayMetric: mass density (kg/m3)

CCOC(=O)CC(C)C [ethyl 3-methylbutanoate] + CCO = 823.53
CCC(=O)OCc1ccccc1 [benzyl propanoate] + CCO = 918.13
CCOC(=O)c1ccccc1O [ethyl 2-hydroxybenzoate] + CCO = 964.62
COC(=O)c1ccccc1 [methyl benzoate] + CCO = 931.27
CC(=O)OCc1ccccc1 [benzyl ethanoate] + CCO = 923.54
CCOC(=O)CC(C)=O [ethyl 3-oxobutanoate] + CCO = 900.41

---

assayOverview: xn = mol fraction of the nth substance listed
testConditions: 308.15 K; 100.5 kPa; Liquid; Capillary tube (Ostwald / Ubbelohde) method; x1 = 0.85
assayMetric: viscosity (mPa·s)

Reference set (3 entries):
COC(=O)c1ccccc1 [methyl benzoate] + CCO = 1.369
CC(=O)OCc1ccccc1 [benzyl ethanoate] + CCO = 1.524
CCOC(=O)CC(C)=O [ethyl 3-oxobutanoate] + CCO = 1.199

[1] CCC(=O)OCc1ccccc1 [benzyl propanoate] + CCO
[2] CCOC(=O)CC(C)C [ethyl 3-methylbutanoate] + CCO
Which gives the smaller viscosity number: 1 or 2 ? Please identify the chosen entry by its label. 2
(2: 0.625 mPa·s, 1: 1.617 mPa·s)

The origin of these recorded values is the NIST ThermoML archive (doi:10.1021/je050402s).
